All values here come from patent US4760062A.

tested on: mice; assay: Acute toxicity (LD0, LD50, LD100); conditions: mice, route IP
The entries below are paired with their reported LD0.
Measured quantity: LD0

INSERT INTO assay_data (compound, measured_quantity, result) VALUES
  ('COc1cc([N+](=O)[O-])c(Cl)cc1S(=O)(=O)N1CCN(C)CC1', 'LD0', '400 mg/kg'),
  ('COc1cc(OC)c(S(=O)(=O)N2CCN(CC(O)CO)CC2)cc1Cl (stereo not shown)', 'LD0', '600 mg/kg'),
  ('COc1ccc(Cl)cc1S(=O)(=O)N1CCN(Cc2ccccc2)CC1', 'LD0', '> 2 000 mg/kg'),
  ('COc1cc(OC)c(S(=O)(=O)N2CCN(c3ccc(F)cc3)CC2)cc1S(C)(=O)=O', 'LD0', '> 2 000 mg/kg');

* * *

test: Acute toxicity (LD0, LD50, LD100); conditions: mouse, in vivo, ip
Measured quantity: LD50 (mg/kg)

INSERT INTO assay_data (compound, readout_qualifier, result_number) VALUES
  ('COc1cc([N+](=O)[O-])c(Cl)cc1S(=O)(=O)N1CCN(C)CC1 [Compound 1292]', '=', 650),
  ('COc1cc(OC)c(S(=O)(=O)N2CCN(CC(O)CO)CC2)cc1Cl (stereo not shown) [Compound 1295]', '=', 820),
  ('COc1cc(OC)c(S(=O)(=O)N2CCN(c3ccc(F)cc3)CC2)cc1S(C)(=O)=O [Compound 1298]', '>', 2000),
  ('COc1ccc(Cl)cc1S(=O)(=O)N1CCN(Cc2ccccc2)CC1 [Compound 1245]', '>', 2000);

* * *

tested on: mice; assay: 4 plates test (suppressive conditioning), 25 mg/kg orally, increase in punished passages with respect to control; assay type: in vivo, Swiss male mice; conditions: Mus musculus, po, 1 h, male mice, 25 mg/kg single oral dose, 60 minutes before the test; read-out: % increase in the number of punished passages with respect to the control batch
Measured quantity: change in vivo at 25 mg/kg

INSERT INTO measurements (structure_as_smiles, tested_system, measured_quantity, result) VALUES
  ('COc1cc([N+](=O)[O-])c(Cl)cc1S(=O)(=O)N1CCN(CCO)CC1', 'mice', 'change in vivo at 25 mg/kg', '17%'),
  ('O=S(=O)(c1cccc(C(F)(F)F)c1)N1CCN(CCCO)CC1', 'mice', 'change in vivo at 25 mg/kg', '25%'),
  ('O=C(c1ccco1)N1CCN(S(=O)(=O)c2cc(C(F)(F)F)cc(C(F)(F)F)c2)CC1', 'mice', 'change in vivo at 25 mg/kg', '22%'),
  ('O=S(=O)(c1cc(C(F)(F)F)cc(C(F)(F)F)c1)N1CCCNCC1', 'mice', 'change in vivo at 25 mg/kg', '22%');

* * *

test system: mice; assay: Acute toxicity (LD0, LD50, LD100); settings: mice, route IP
The entries below are paired with their reported LD100.
Measured quantity: LD100

INSERT INTO measurements (compound, tested_system, result) VALUES
  ('COc1cc(OC)c(S(=O)(=O)N2CCN(CC(O)CO)CC2)cc1Cl (stereo not shown) [Compound 1295]', 'mice', '1 000 mg/kg'),
  ('COc1ccc(Cl)cc1S(=O)(=O)N1CCN(Cc2ccccc2)CC1 [Compound 1245]', 'mice', '> 2 000 mg/kg'),
  ('COc1cc([N+](=O)[O-])c(Cl)cc1S(=O)(=O)N1CCN(C)CC1 [Compound 1292]', 'mice', '1 000 mg/kg'),
  ('COc1cc(OC)c(S(=O)(=O)N2CCN(c3ccc(F)cc3)CC2)cc1S(C)(=O)=O [Compound 1298]', 'mice', '> 2 000 mg/kg');

* * *

assay: Acute toxicity (LD0, LD50, LD100); conditions: mouse, in vivo, iv
Measured quantity: LD50 (mg/kg)

INSERT INTO assay_data (structure_as_smiles, measured_quantity, result_number) VALUES
  ('COc1cc(OC)c(S(=O)(=O)N2CCNCC2)cc1OC', 'LD50', 200);

* * *

The entries below are paired with their reported LD50.
assay: Acute toxicity (LD0, LD50, LD100); conditions: mouse, in vivo
Measured quantity: LD50

INSERT INTO results (molecule, result) VALUES
  ('O=S(=O)(c1cc(C(F)(F)F)cc(C(F)(F)F)c1)N1CCNCC1 [Compound 1400]', '~700 mg/kg'),
  ('COc1cc(N)c(Cl)cc1S(=O)(=O)N1CCN(C)CC1 [Compound 1427]', '~800 mg/kg');

* * *

The entries below are paired with their reported change in vivo at 25 mg/kg.
Tested on: mice
Assay: 4 plates test (suppressive conditioning), 25 mg/kg orally, increase in punished passages with respect to control
Assay type: in vivo, Swiss male mice
Conditions: Mus musculus, po, 1 h, male mice, 25 mg/kg single oral dose, 60 minutes before the test; read-out: % increase in the number of punished passages with respect to the control batch
From the text: The method is based on the attenuation or suppression of the anxiety state induced by electric shocks on movement of the animals (mice) into a special enclosure. The anxiolytic effect is manifested by an increase in movements at doses not affecting motility. For each dose, the groups are of 15 animals which have not undergone the test. […] The results are expressed as percentage of increase in the number of punished passages with respect to the control batch (increase percentage).
Measured quantity: change in vivo at 25 mg/kg

INSERT INTO results (compound, measured_quantity, result) VALUES
  ('O=C(c1ccccc1)N1CCN(S(=O)(=O)c2cccc(C(F)(F)F)c2)CC1', 'change in vivo at 25 mg/kg', '20%'),
  ('COc1cc(OC)c(S(=O)(=O)N2CCN(Cc3ccccc3)CC2)cc1S(C)(=O)=O', 'change in vivo at 25 mg/kg', '13%'),
  ('O=C(N1CCN(S(=O)(=O)c2cccc(C(F)(F)F)c2)CC1)C12CC3CC(CC(C3)C1)C2', 'change in vivo at 25 mg/kg', '28%'),
  ('COc1cc(OC)c(S(=O)(=O)N2CCN(CCO)CC2)cc1S(C)(=O)=O', 'change in vivo at 25 mg/kg', '17%'),
  ('O=S(=O)(c1cc(C(F)(F)F)cc(C(F)(F)F)c1)N1CCCN(CC(O)CO)CC1 (stereo not shown)', 'change in vivo at 25 mg/kg', '10%'),
  ('O=C(c1ccco1)N1CCCN(S(=O)(=O)c2ccc(Cl)c(C(F)(F)F)c2)CC1', 'change in vivo at 25 mg/kg', '14%'),
  ('O=S(=O)(c1cccc(C(F)(F)F)c1)N1CCN(CCO)CC1', 'change in vivo at 25 mg/kg', '35%'),
  ('COc1cc(OC)c(S(=O)(=O)N2CCNCC2)cc1OC', 'change in vivo at 25 mg/kg', '18%'),
  ('O=C(N1CCN(S(=O)(=O)c2ccc(Cl)c(C(F)(F)F)c2)CC1)C12CC3CC(CC(C3)C1)C2', 'change in vivo at 25 mg/kg', '24%'),
  ('COc1ccc(Cl)cc1S(=O)(=O)N1CCN(CCO)CC1', 'change in vivo at 25 mg/kg', '10%'),
  ('COc1ccc(Br)cc1S(=O)(=O)N1CCN(c2ccc(F)cc2)CC1', 'change in vivo at 25 mg/kg', '28%'),
  ('COc1cc(OC)c(S(=O)(=O)N2CCN(C)CC2)cc1OC', 'change in vivo at 25 mg/kg', '31%'),
  ('O=S(=O)(c1cccc(C(F)(F)F)c1)N1CCNCC1', 'change in vivo at 25 mg/kg', '26%');
